Data provenance is patent US11040954B1.

targetOrSystem: CXCR3 (Homo sapiens, UniProt P49682)
Construct: host or cells: CHO-K1 (cAMP Hunter CHOK1 CXCR3 Gi cell line)
Sequence (P49682 whole entry): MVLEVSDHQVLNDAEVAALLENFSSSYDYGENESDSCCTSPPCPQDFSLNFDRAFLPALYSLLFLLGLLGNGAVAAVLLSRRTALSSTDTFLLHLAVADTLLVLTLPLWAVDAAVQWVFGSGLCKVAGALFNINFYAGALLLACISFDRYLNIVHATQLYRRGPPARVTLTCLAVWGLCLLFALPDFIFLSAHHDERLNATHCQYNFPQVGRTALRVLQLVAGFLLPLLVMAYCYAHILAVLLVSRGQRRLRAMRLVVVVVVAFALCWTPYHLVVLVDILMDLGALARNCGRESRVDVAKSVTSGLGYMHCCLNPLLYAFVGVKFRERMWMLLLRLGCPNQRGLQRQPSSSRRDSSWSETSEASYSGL
protocolText: CXCR3 cAMP agonist assay (cAMP Hunter CHOK1 CXCR3 Gi cell line, forskolin-stimulated, HitHunter cAMP detection)
Type: cell-based
experimentalParameters: cAMP Hunter CHOK1 CXCR3 Gi cells, 20 μM forskolin, 30 minutes; read-out: Activity (CXCR3 cAMP agonist assay compound EC50)
Description: The cAMP Hunter™ CHOK1 CXCR3 Gi cell line was purchased from DiscoveRx. Cells were seeded into a 96-well white assay plate at 50,000 cells/well/94 μl assay buffer (Hank's Buffered Saline Solution, 10 mM HEPES, 0.1% fatty acid-free BSA, pH 7.4) and immediately assayed in suspension. […] Direct detection of cAMP was carried out using the DiscoveRx HitHunter cAMP kit according to manufacturer's instructions, and luminescence was read using a SpectraMax M5 plate reader.
pEC50: −log10 of the molar value.
Listed next: entries and their corresponding pEC50.

A selection of reference data follows.
CCc1ccc(NC(=O)[C@H](CCCCN)NC(=O)[C@@H]2Cc3ccccc3CN2C(=O)CCC(=O)c2ccccc2)cc1CC
6.60 to 7.30
Cc1ccc(NC(=O)[C@H](CCN)NC(=O)[C@@H]2Cc3ccccc3CN2C(=O)CCC(=O)c2ccccc2)c(C(F)(F)F)c1
6.30 to 6.60
COc1cc(F)c(C)cc1NC(=O)[C@H](CCN)NC(=O)[C@@H]1Cc2ccccc2CN1C(=O)CCC(=O)c1ccccc1
6.60 to 7.30
Cc1cc(NC(=O)C2(NC(=O)[C@@H]3Cc4ccccc4CN3C(=O)CCC(=O)c3ccccc3)CCNCC2)c(F)cc1Cl
> 7.30
CC[C@@H]1CN(C(=O)CCC(=O)N2Cc3ccccc3C[C@H]2C(=O)N[C@@H](CCN)C(=O)Nc2ccc(Cl)c(C)c2)CCN1C
> 7.30

Identify the measured pEC50 of `N#Cc1ccccc1NC(=O)[C@H](CCN)NC(=O)[C@@H]1Cc2ccccc2CN1C(=O)CCC(=O)c1ccccc1` for CXCR3 (Homo sapiens, UniProt P49682).
> 7.30

Give CXCR3 (Homo sapiens, UniProt P49682) pEC50 for `CN1Cc2ccc(NC(=O)[C@H](CCN)NC(=O)[C@@H]3Cc4ccccc4CN3C(=O)CCC(=O)c3ccccc3)cc2C1`
> 7.30

Lookup: pEC50 / CXCR3 (Homo sapiens, UniProt P49682) / `NCC[C@H](NC(=O)[C@@H]1Cc2ccccc2CN1C(=O)CCC(=O)c1ccccc1)C(=O)Nc1ccc2c(c1)CCC2=O`
< 6.30

Given the entry `Cc1cc(NC(=O)[C@H](CCCC[N+](C)(C)C)NC(=O)[C@@H]2Cc3ccccc3CN2C(=O)CCC(=O)c2ccccc2)ccc1Cl` , what pEC50 was observed with CXCR3 (Homo sapiens, UniProt P49682)?
6.60 to 7.30

What is its pEC50 for CXCR3 (Homo sapiens, UniProt P49682)? Entry: `Cc1ccccc1NC(=O)[C@H](CCCCN)NC(=O)[C@@H]1Cc2ccccc2CN1C(=O)CCC(=O)c1ccccc1`
6.30 to 6.60

Item `NCC[C@H](NC(=O)[C@@H]1Cc2ccccc2CN1C(=O)CCC(=O)c1ccccc1)C(=O)Nc1ccc2cccnc2c1` with CXCR3 (Homo sapiens, UniProt P49682) - pEC50?
6.30 to 6.60

Give recorded pEC50 with CXCR3 (Homo sapiens, UniProt P49682) for the following molecule: `Cc1cc(NC(=O)[C@H](CCN)NC(=O)[C@@H]2Cc3ccccc3CN2C(=O)CCC(=O)NCCC(F)(F)F)ccc1Cl`
6.60 to 7.30

Query for CXCR3 (Homo sapiens, UniProt P49682): what pEC50 does the record show for `CCc1c(C)cccc1NC(=O)[C@H](CCN)NC(=O)[C@@H]1Cc2ccccc2CN1C(=O)CCC(=O)c1ccccc1` ?
6.60 to 7.30

Entry CC(C)C1CCN(C(=O)CCC(=O)N2Cc3ccccc3C[C@H]2C(=O)N[C@@H](CCN)C(=O)Nc2ccc(Cl)c(Cl)c2F)C1 (some centres unmarked) , system CXCR3 (Homo sapiens, UniProt P49682): what pEC50 was measured?
> 7.30

###

targetOrSystem: CXCR3 (Homo sapiens, UniProt P49682)
Construct: host or cells: CHO-K1 (cAMP Hunter CHOK1 CXCR3 Gi cell line)
protocolText: CXCR3 cAMP agonist assay (cAMP Hunter CHOK1 CXCR3 Gi cell line, forskolin-stimulated, HitHunter cAMP detection)
Format: cell-based
experimentalParameters: cAMP Hunter CHOK1 CXCR3 Gi cells, 20 μM forskolin, 30 minutes; read-out: Activity (CXCR3 cAMP agonist assay compound EC50)
pEC50: −log10 of the molar value.
metric: pEC50

Example cases with answers are listed next.
Cc1cc(NC(=O)C2(NC(=O)[C@@H]3Cc4ccccc4CN3C(=O)CCC(=O)c3ccccc3)CCNCC2)c(Cl)cc1Cl [Compound 11-6]
> 7.30
CC1(C)CCCCN1C(=O)CCC(=O)N1Cc2ccccc2C[C@H]1C(=O)NC(CC12CC(N)(C1)C2)C(=O)Nc1ccc(Cl)c(Cl)c1F (stereo partly drawn) [Compound 33-1]
> 7.30

// next entry
# lookup: pEC50 of CCNCC[C@H](NC(=O)[C@@H]1Cc2ccccc2CN1C(=O)CCC(=O)c1ccccc1)C(=O)Nc1ccc(Cl)c(C)c1 [Compound 8-4]
> 7.30

###

protocolText: Mouse pharmacokinetics after oral gavage, plasma drug concentration by LC-MS/MS (BALB/c)
Format: in vivo
experimentalParameters: mouse, plasma, 10 mg/kg, male mice, read-out: AUC0-24
Overview of recorded AUC(0-t) for various compounds
Express it in µM·h; write the number only.

Cc1cccc(NC(=O)[C@H](CCN)NC(=O)[C@@H]2Cc3ccccc3CN2C(=O)CCC(=O)c2ccccc2)c1
0.8
Cc1cc(NC(=O)[C@H](CCN)NC(=O)[C@@H]2Cc3ccccc3CN2C(=O)CCC(=O)c2ccccc2)c(Cl)cc1Cl
27
Cc1cc(NC(=O)[C@H](CCCCNC(C)C)NC(=O)[C@@H]2Cc3ccccc3CN2C(=O)CCC(=O)c2ccccc2)ccc1Cl
1.7

Need AUC(0-t), item `Cc1ccc(NC(=O)[C@H](CCN)NC(=O)[C@@H]2Cc3ccccc3CN2C(=O)CCC(=O)c2ccccc2)cc1C(F)(F)F`
3.3

Report AUC(0-t) for `NCC[C@H](NC(=O)[C@@H]1Cc2ccccc2CN1C(=O)CCC(=O)c1ccccc1)C(=O)Nc1ccc(Cl)c(Cl)c1F` please.
12.3

Can you share its AUC(0-t)? I mean this compound: `Cc1c(NC(=O)[C@H](CCCCN)NC(=O)[C@@H]2Cc3ccccc3CN2C(=O)CCC(=O)c2ccccc2)ccc(Cl)c1Cl`
0.34

###

targetOrSystem: CXCR3 (Homo sapiens, UniProt P49682)
Construct: host or cells: CHO-K1 (cAMP Hunter CHOK1 CXCR3 Gi cell line)
protocolText: CXCR3 cAMP agonist assay (cAMP Hunter CHOK1 CXCR3 Gi cell line, forskolin-stimulated, HitHunter cAMP detection)
Assay type: cell-based
experimentalParameters: cAMP Hunter CHOK1 CXCR3 Gi cells, 20 μM forskolin, 30 minutes; read-out: Activity (CXCR3 cAMP agonist assay compound EC50)
metric: EC50

Here are 5 compounds together with their reported answers.
CCc1cc(Cl)c(C)cc1NC(=O)[C@H](CCN)NC(=O)[C@@H]1Cc2ccccc2CN1C(=O)CCC(=O)c1ccccc1
50 to 250 nM
O=C(NC1(C(=O)Nc2ccc(Cl)c(Cl)c2F)CCNCC1)[C@@H]1Cc2ccccc2CN1C(=O)CCC(=O)N1CCCC2(CCC2)C1
< 50 nM
Cc1cc(NC(=O)[C@H](CCN)NC(=O)[C@@H]2Cc3ccccc3CN2C(=O)CCC(=O)N2CCCCC2C(C)C)ccc1Cl (stereo partly shown)
< 50 nM
Cc1cc(NC(=O)[C@H](CCN)NC(=O)[C@@H]2Cc3ccccc3CN2C(=O)CCC(=O)N2CCCN(C)CC2)ccc1Cl
50 to 250 nM
Cc1cc(NC(=O)C(Cc2cccnc2)NC(=O)[C@@H]2Cc3ccccc3CN2C(=O)CCC(=O)c2ccccc2)ccc1Cl (mixture of isomers)
250 to 500 nM

// map `Cc1cc(NC(=O)[C@H](CCN)NC(=O)[C@@H]2Cc3ccccc3CN2C(=O)CCC(=O)N2CCC3(CCC3)C2)ccc1Cl` to recorded EC50 (system: CXCR3 (Homo sapiens, UniProt P49682))
< 50 nM

What is its EC50 for CXCR3 (Homo sapiens, UniProt P49682)? Entry: Cc1cc(NC(=O)[C@H](CCN)NC(=O)[C@@H]2Cc3ccccc3CN2C(=O)CCC(=O)N2CCCC2C#N)ccc1Cl (stereo partly shown)
< 50 nM

###

targetOrSystem: CXCR3 (Homo sapiens)
Construct: host or cells: CHO-K1 (cAMP Hunter CHOK1 CXCR3 Gi cell line)
protocolText: CXCR3 cAMP agonist assay (cAMP Hunter CHOK1 CXCR3 Gi cell line, forskolin-stimulated, HitHunter cAMP detection)
Assay type: cell-based
experimentalParameters: cAMP Hunter CHOK1 CXCR3 Gi cells, 20 μM forskolin, 30 minutes; read-out: Activity (CXCR3 cAMP agonist assay compound EC50)
pEC50: −log10 of the molar value.
metric: pEC50

Sample answers from the record:
Cc1cc(NC(=O)[C@H](CC23CC(N)(C2)C3)NC(=O)[C@@H]2Cc3ccccc3CN2C(=O)CCC(=O)c2ccccc2)ccc1Cl
> 7.30
Cc1cc(NC(=O)[C@H](CCN)NC(=O)[C@@H]2Cc3ccccc3CN2C(=O)CCC(=O)N2CCC(C)(C)CC2)cc(C)c1Cl
> 7.30
Cc1cc(NC(=O)[C@H](CCN)NC(=O)[C@@H]2Cc3ccccc3CN2C(=O)CCC(=O)N2CCCCC2(C)C)c(C#N)cc1Cl
> 7.30
Cc1cccc(NC(=O)[C@H](CCN)NC(=O)[C@@H]2Cc3ccccc3CN2C(=O)CCC(=O)c2ccccc2)c1
> 7.30
CCC1CCCN(C(=O)CCC(=O)N2Cc3ccccc3C[C@H]2C(=O)N[C@@H](CCN)C(=O)Nc2ccc(Cl)c(C)c2)C1 (stereo partly drawn)
> 7.30
Cc1cc(NC(=O)[C@H](CCN)NC(=O)[C@@H]2Cc3ccccc3CN2C(=O)CCC(=O)N2CC(Cc3ccccc3)C2)ccc1Cl
6.30 to 6.60
CC(C)N(C(=O)CCC(=O)N1Cc2ccccc2C[C@H]1C(=O)N[C@@H](CCN)C(=O)Nc1ccc(Cl)c(Cl)c1F)C(C)C
6.30 to 6.60
COc1cc(Cl)ccc1NC(=O)[C@H](CCN)NC(=O)[C@@H]1Cc2ccccc2CN1C(=O)CCC(=O)c1ccccc1
6.60 to 7.30

In the following, a different compound is considered.
// query pEC50 value for entry `NCCCC[C@H](NC(=O)[C@@H]1Cc2ccccc2CN1C(=O)CCC(=O)c1ccccc1)C(=O)Nc1cccc(Cl)c1`
6.60 to 7.30
